- Tested on: Malme-3M
- assay explanation: NCI tumour cell line growth inhibition, 48 h
Activity calls are given as the source filed them. No stated cut-off is given here; in the data, active = GI50 up to about 1.1 µM and inactive = higher.
assay endpoint: GI50

compound | value measured
COc1c2cc(C(C)(C)C)cc1Cc1cccc(c1O)Cc1cc(C(C)(C)C)cc(c1OC)Cc1cccc(c1O)Cc1cc(C(C)(C)C)cc(c1OC)Cc1cccc(c1O)C2 | > 100 µM (inactive)
COc1cc(S(=O)(=O)Nc2ccc(-c3csc(N4C(=O)C(Cl)C4c4ccccc4)n3)cc2)ccc1Cl (stereo not drawn) | 22.3 µM (inactive)

Would you kindly share the measured GI50 for CC1(C)C2C=CC1C(=O)CC2 (stereo not drawn) ?
> 100 µM (inactive)

* * *

- Tested on: TK-10
- assay explanation: NCI tumour cell line growth inhibition, 48 h
Calls of active or inactive are those of the source. No stated cut-off is given here; in the data, active = GI50 up to about 1.1 µM and inactive = higher. Where a SMILES comes first, the peptide text is derived from it. [ ]: non-standard residue; d: D form. The star is where a group is joined. ξ: configuration not given here. ξF = NC(Cc1ccccc1)C(=O)O; Cbz = O=C(OCc1ccccc1)*; Aib = CC(C)(N)C(=O)O; NHNH2 = NN*
assay endpoint: GI50

These solved cases illustrate the format of a correct answer.
compound | value measured
CC(C)(NC(=O)OCc1ccccc1)C(=O)NC(Cc1ccccc1)C(=O)NN (stereo not drawn) (Cbz-[Aib]-[ξF]-NHNH2) | > 100 µM (inactive)
Cc1oc(N)c(S(=O)(=O)/C(C#N)=C/c2ccccc2[N+](=O)[O-])c1C | 50.2 µM (inactive)

Would you kindly share the measured GI50 for CC[C@]1(Cc2ccc(OC)c(OC)c2)C2CC(C(=O)OC)ON2O[C@H](OCc2ccccc2)[C@@H]1OC(C)=O (stereo partly drawn) ?
> 100 µM (inactive)

* * *

Would you kindly list GI50 for each of these compounds?
- System: OVCAR-5
- assay explanation: NCI tumour cell line growth inhibition, 48 h
Active and inactive are the calls of the source. No stated cut-off is given here; in the data, active = GI50 up to about 1.1 µM and inactive = higher. Where a SMILES comes first, the peptide text is derived from it. [ ]: non-standard residue; d: D form. The star is where a group is joined. ξ: configuration not given here. ξF = NC(Cc1ccccc1)C(=O)O; Cbz = O=C(OCc1ccccc1)*; Aib = CC(C)(N)C(=O)O; NHNH2 = NN*

These solved cases illustrate the format of a correct answer.
compound | assay system | GI50
CC(C)(NC(=O)OCc1ccccc1)C(=O)NC(Cc1ccccc1)C(=O)NN (stereo unspecified) (Cbz-[Aib]-[ξF]-NHNH2) | OVCAR-5 | > 100 µM (inactive)
Sc1nnc(COc2ccc(Cl)cc2)o1 | OVCAR-5 | > 100 µM (inactive)

Working through the 4 compounds below one at a time, give GI50 for each.
1. CC(C)NC(NC(C)C)=C(S(=O)(=O)C(F)(F)C(F)(F)C(F)(F)C(F)(F)F)S(=O)(=O)C(F)(F)C(F)(F)C(F)(F)C(F)(F)F
2. Cc1oc(N)c(S(=O)(=O)/C(C#N)=C/c2ccccc2[N+](=O)[O-])c1C
3. O=S1(=O)c2ccccc2C(=NO)c2ccccc21
4. COc1cccc2c1-c1nc(N)c3c(OC)cccc3c1C2=O

["> 100 µM (inactive)", "20.6 µM (inactive)", "> 100 µM (inactive)", "> 100 µM (inactive)"]

* * *

- Tested on: HCT-15
Rule: GI50 below 10 µM gives T. Equal to or above 10 µM gives F.

Before answering, review these 10 worked examples.
molecule | assigned label
CCCCCc1cc(CCCC)sc1-c1ccco1 | F
CCCCC1(O)CC2CC1C(C)C2(C)C (stereo not drawn) | F
O=C1/C(=C/c2cccc(Cl)c2)CCCc2ccccc21 | F
OCCCNCC(O)c1ccc(OCc2ccccc2)c(OCc2ccccc2)c1 (stereo not drawn) | F
COc1ccc(C(=O)/C=C/c2cc(O)c(O)c(F)c2F)c(OC)c1 | T
O=C1SC(c2ccccc2)(c2ccccc2)c2ccccc21 | F
Cc1nc2n(c1/C=C1/C(=O)Nc3ccccc31)CCS2 | F
CC(=O)OCCOCn1c2c(c(=S)[nH]c1=O)CCC2 | F
CC[C@@]1(O)C(=O)OCc2c1cc1n(c2=O)Cc2c-1nc1ccc(N)cc1c2CC[Si](C)(C)C | T
O=C(NCCCN1CCN(CCCNC(=O)Nc2cccc3ccccc23)CC1)Nc1cccc2ccccc12 | F

Hello, I'm reviewing records and need to know if GI50 of `O=C1C(Sc2ccc3ccccc3c2)=C(Sc2ccc3ccccc3c2)C(=O)c2ccccc21` is below 10 µM. Could you check?
T

Item: `c1cc(-c2csc(-c3ccsc3)c2)cs1`
F

Item: Cc1ccc([N+](=O)[O-])cc1S(=O)(=O)Nc1ccc(C2=NN(S(=O)(=O)c3cc([N+](=O)[O-])ccc3C)C(c3ccccc3)C2)cc1 (stereo not drawn)
F

* * *

- Test system: RXF 393
- assay explanation: NCI tumour cell line growth inhibition, 48 h
The source made the active and inactive calls. Rule as the data show it: active = GI50 up to about 1.1 µM and inactive = higher.
assay endpoint: GI50

These solved cases illustrate the format of a correct answer.
molecule | assay endpoint | value measured
CCOC(=O)c1cc(C2(O)CCN(CC(C)CC)C2=O)c(-c2cc(C)no2)[nH]1 (stereo unspecified) | GI50 | > 100 µM (inactive)
O=c1sc2c(s1)SSSSS2 | GI50 | > 50 µM (inactive)
COC(=O)CSSCc1ccc([N+](=O)[O-])cc1 | GI50 | 18.4 µM (inactive)

Working through the 3 molecules below one at a time, give GI50 for each.
1. O=C(Cc1nc2ncccc2[nH]c1=O)c1c[nH]c2ccccc12
2. C[C@]12CC[C@H](O)CC1=CC[C@@H]1[C@@H]2CC[C@]2(C)C(=N/N)/C(=N\O)C[C@@H]12
3. CC(C)=CCC/C(C)=C/CC/C(C)=C/CCN(C)CCO

1: 22 µM (inactive); 2: > 100 µM (inactive); 3: 7.59 µM (inactive)

* * *

Would you kindly list GI50 for each of these compounds?
- System: LOX IMVI
- assay explanation: NCI tumour cell line growth inhibition, 48 h
Activity calls are given as the source filed them. Rule as the data show it: active = GI50 up to about 1.1 µM and inactive = higher.

These solved cases illustrate the format of a correct answer.
compound | GI50
O=C(O)c1nc2ccc(C(F)(F)F)cc2nc1Nc1ccc(F)cc1 | 18.5 µM (inactive)
Clc1ccc(COC(Cn2ccnc2)c2ccc(Cl)cc2Cl)cc1 (stereo unspecified) [ECONAZOLE NITRATE] | 9.57 µM (inactive)
O=C(O)CCCCCCC[C@@H]1S[C@H]1CCCCCCO | > 100 µM (inactive)
Cc1nc(Nc2ccccc2Cl)sc1C(=O)CC(=O)C(N)=O | 27.4 µM (inactive)
N#CNC(=N)NC(=O)/C=C/C=C/c1ccc(Cl)cc1 | > 100 µM (inactive)

# ---- query compound ----
Would you kindly share the measured GI50 for COC(=O)C1CCC2(CC1)NC(=O)NC2=O (stereo unspecified) ?
> 100 µM (inactive)

* * *

- System: OVCAR-8
- assay explanation: NCI tumour cell line growth inhibition, 48 h
Active and inactive are the calls of the source. Rule as the data show it: active = GI50 up to about 1.1 µM and inactive = higher.
assay endpoint: GI50

Working through the 8 compounds below one at a time, give GI50 for each.
1. CCCc1cc(=O)oc2c(C=O)c(O)cc(O)c12
2. O=C(NCCCN1CCN(CCCNC(=O)Nc2cccc3ccccc23)CC1)Nc1cccc2ccccc12
3. CCCCCCCCCCCCCCC(O)C1CCC(C(O)CCC(O)CCCCCC(O)CC2=CC(C)OC2=O)O1 (stereo not drawn)
4. N=C(N)/N=C(\N)Nc1ccc(C(=O)O)cc1
5. COC(=O)/C(=C1\OC(=O)C(c2ccc(Cl)cc2)=C1O)c1ccc(Cl)cc1
6. N#C/C(N)=C(C#N)/N=C/Nc1ccccc1N
7. O=S1(=O)OCCOS(=O)(=O)C1F
8. CC/C=C\C=C/C(=O)N/C=C/CCC

["22 µM (inactive)", "18.7 µM (inactive)", "2.07 µM (inactive)", "> 100 µM (inactive)", "31.7 µM (inactive)", "> 100 µM (inactive)", "> 100 µM (inactive)", "> 100 µM (inactive)"]

* * *

- System: SK-OV-3
- assay explanation: NCI tumour cell line growth inhibition, 48 h
Active and inactive are the calls of the source. No stated cut-off is given here; in the data, active = GI50 up to about 1.1 µM and inactive = higher.
// allowed return values: active, inactive

Field: outcome | Entry: `CCOC(=O)CCN1C(=O)c2ccc(NC(=O)C(=O)O)cc2S1(=O)=O`
inactive

Item: `CC[C@@]1(O)C(=O)OCc2c1cc1n(c2=O)Cc2c-1nc1ccc(N)cc1c2CC[Si](C)(C)C`
active

Item: CCOC(=O)NC1CN2CCC1CC2 (stereo unspecified)
inactive

Item: CCOC(=O)CNc1nnnn1C1OC(CO)C(O)C1O (stereo unspecified)
inactive

Item: CC1OC(OC2C(O)C(O)C(O)C(O)C2O)C(N)CC1NC(=N)C(=O)O (stereo unspecified)
inactive

Item: `CCOc1ccccc1/C=C(/C#N)C(N)=O`
inactive

Item: `COc1cc2c(cc1OC)-c1c3cc(O)ccc3nn[n+]1CC2`
inactive

* * *

Would you kindly list GI50 for each of these molecules?
- Tested on: MCF7
- assay explanation: NCI tumour cell line growth inhibition, 48 h
Calls of active or inactive are those of the source. Rule as the data show it: active = GI50 up to about 1.1 µM and inactive = higher.

Working through the 4 molecules below one at a time, give GI50 for each.
1. CCOc1ccc(NC(=O)C(=O)Nn2c(N)nnc2N)cc1
2. O=C1C=Cc2c(I)sc(I)c21
3. O=C1CCc2cc([N+](=O)[O-])ccc2O1
4. O=C(CNc1ccc(Cl)cc1Cl)Nn1c(-c2ccccc2)nc2ccccc2c1=O

> 100 µM (inactive)
18.4 µM (inactive)
> 100 µM (inactive)
13.4 µM (inactive)
